The measured values listed here are drawn from patent US4371463A.

TGT: opiate receptors
EXPERIMENT_SUMMARY: Opiate receptor affinity by inhibition of stereospecific 3H-naloxone binding to rat brain membranes
CONDITIONS_USED: rat brain membranes, 1 h at 0° C., 100 mM NaCl, 1.3 nM 3H-naloxone; read-out: Opiate Receptor Affinity (concentration causing 50% inhibition of stereospecific 3H-naloxone binding)
Square brackets hold non-standard residues; d marks the D form. Peptide text beside a SMILES is read from it.
Measured log10 IC50, listed per entry.
Answers are given as log10 of IC50 in µM.

[[record]]
molecule = "CSCC[C@H](NC(=O)[C@H](Cc1ccccc1)NC(=O)CNC(=O)[C@H](C)NC(=O)[C@@H](N)Cc1ccc(O)cc1)C(N)=O [L-Ala^2 -Met-enkephalin-amide, reference compound]"
tgt = "opiate receptors"
value_observed = 0.60

[[record]]
molecule = "CSCC[C@H](NC(=O)[C@H](Cc1ccccc1)NC(=O)CNC(=O)CN(C)C(=O)[C@@H](N)Cc1ccc(O)cc1)C(N)=O [Sar^2 -Met-enkephalin-amide]"
tgt = "opiate receptors"
value_observed = 0.90

[[record]]
molecule = "CSCC[C@H](NC(=O)[C@H](Cc1ccccc1)NC(=O)CNC(=O)[C@@H](C)NC(=O)[C@@H](N)Cc1ccc(O)cc1)C(N)=O [D-Ala^2 -Met-enkephalin-amide]"
tgt = "opiate receptors"
value_observed = -0.40

[[record]]
molecule = "CC(C)C[C@H](NC(=O)[C@H](Cc1ccccc1)NC(=O)CNC(=O)CNC(=O)[C@@H](N)Cc1ccc(O)cc1)C(=O)O [Leu-enkephalin, H-L-Tyr-Gly-Gly-L-Phe-L-Leu-OH, reference compound]"
tgt = "opiate receptors"
value_observed = -0.15

[[record]]
molecule = "CSCC[C@H](NC(=O)[C@H](Cc1ccccc1)NC(=O)CNC(=O)[C@@H](Cc1ccccc1)NC(=O)[C@@H](N)Cc1ccc(O)cc1)C(N)=O [D-Phe^2 -Met-enkephalin-amide] (H-Y[dF]GFM-NH2)"
tgt = "opiate receptors"
value_observed = 0.30


Name the recorded log10 IC50 of the molecule listed here: CSCC[C@H](NC(=O)[C@H](Cc1ccccc1)NC(=O)CNC(=O)[C@@H](C)NC(=O)[C@@H](N)Cc1ccc(O)cc1)C(=O)O [D-Ala^2 -Met-enkephalin] -0.40

Name the recorded log10 IC50 of the molecule listed here: CSCC[C@H](NC(=O)[C@H](Cc1ccccc1)NC(=O)CNC(=O)CNC(=O)[C@@H](N)Cc1ccc(O)cc1)C(=O)O [Met-enkephalin, H-L-Tyr-Gly-Gly-L-Phe-L-Met-OH] -0.70

Name the recorded log10 IC50 of the molecule listed here: CSCC[C@H](NC(=O)[C@H](Cc1ccccc1)NC(=O)CNC(=O)[C@H](NC(=O)[C@@H](N)Cc1ccc(O)cc1)C(C)C)C(N)=O [D-Val^2 -Met-enkephalin-amide] (H-Y[dV]GFM-NH2) 0.60
